The values you see were collected from patent US20190185479A1.

System: hPDE11A (Homo sapiens, UniProt Q9HCR9) | Read-out: Ki
Sequence (Q9HCR9 whole entry): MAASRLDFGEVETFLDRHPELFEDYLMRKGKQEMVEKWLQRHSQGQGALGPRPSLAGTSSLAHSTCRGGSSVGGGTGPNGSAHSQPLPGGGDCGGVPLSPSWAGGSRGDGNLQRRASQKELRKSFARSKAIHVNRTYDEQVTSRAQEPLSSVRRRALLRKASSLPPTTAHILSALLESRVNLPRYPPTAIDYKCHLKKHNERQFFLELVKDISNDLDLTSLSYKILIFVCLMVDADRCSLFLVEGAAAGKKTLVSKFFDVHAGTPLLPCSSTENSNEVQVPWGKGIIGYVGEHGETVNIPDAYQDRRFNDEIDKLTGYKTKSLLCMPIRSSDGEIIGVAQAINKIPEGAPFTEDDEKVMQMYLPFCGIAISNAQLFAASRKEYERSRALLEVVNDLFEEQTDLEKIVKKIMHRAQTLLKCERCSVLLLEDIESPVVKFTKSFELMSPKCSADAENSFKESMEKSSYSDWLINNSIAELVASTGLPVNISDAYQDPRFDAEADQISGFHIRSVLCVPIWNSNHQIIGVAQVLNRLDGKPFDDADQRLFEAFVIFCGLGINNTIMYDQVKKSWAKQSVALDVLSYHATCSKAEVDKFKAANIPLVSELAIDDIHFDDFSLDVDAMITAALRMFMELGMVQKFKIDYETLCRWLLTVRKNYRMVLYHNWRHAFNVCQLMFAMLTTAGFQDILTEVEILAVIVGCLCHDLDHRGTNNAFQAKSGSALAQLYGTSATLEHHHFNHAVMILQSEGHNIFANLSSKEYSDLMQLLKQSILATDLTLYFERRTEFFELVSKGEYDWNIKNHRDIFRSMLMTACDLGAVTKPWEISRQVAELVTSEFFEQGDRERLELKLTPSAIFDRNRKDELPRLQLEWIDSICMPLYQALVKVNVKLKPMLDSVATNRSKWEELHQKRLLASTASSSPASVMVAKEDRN
// return numeric value only (unit: µM, not printed)

INSERT INTO measurements (sample_smiles, target_entity, u, data_value) VALUES
  ('Nc1ncnc2c1nnn2C1CCCCC1', 'hPDE11A (Homo sapiens, UniProt Q9HCR9)', 'µM', 29);

Continue with the molecule presented below.
Reported Ki for hPDE11A (Homo sapiens, UniProt Q9HCR9), given C[C@@H]1CCC[C@H](c2nnc3c(N)nccn23)C1 ?
46

* * *

Target: hPDE4D (Homo sapiens, UniProt Q08499)
Construct: purchased SB Drug Discovery
Sequence (Q08499 whole entry): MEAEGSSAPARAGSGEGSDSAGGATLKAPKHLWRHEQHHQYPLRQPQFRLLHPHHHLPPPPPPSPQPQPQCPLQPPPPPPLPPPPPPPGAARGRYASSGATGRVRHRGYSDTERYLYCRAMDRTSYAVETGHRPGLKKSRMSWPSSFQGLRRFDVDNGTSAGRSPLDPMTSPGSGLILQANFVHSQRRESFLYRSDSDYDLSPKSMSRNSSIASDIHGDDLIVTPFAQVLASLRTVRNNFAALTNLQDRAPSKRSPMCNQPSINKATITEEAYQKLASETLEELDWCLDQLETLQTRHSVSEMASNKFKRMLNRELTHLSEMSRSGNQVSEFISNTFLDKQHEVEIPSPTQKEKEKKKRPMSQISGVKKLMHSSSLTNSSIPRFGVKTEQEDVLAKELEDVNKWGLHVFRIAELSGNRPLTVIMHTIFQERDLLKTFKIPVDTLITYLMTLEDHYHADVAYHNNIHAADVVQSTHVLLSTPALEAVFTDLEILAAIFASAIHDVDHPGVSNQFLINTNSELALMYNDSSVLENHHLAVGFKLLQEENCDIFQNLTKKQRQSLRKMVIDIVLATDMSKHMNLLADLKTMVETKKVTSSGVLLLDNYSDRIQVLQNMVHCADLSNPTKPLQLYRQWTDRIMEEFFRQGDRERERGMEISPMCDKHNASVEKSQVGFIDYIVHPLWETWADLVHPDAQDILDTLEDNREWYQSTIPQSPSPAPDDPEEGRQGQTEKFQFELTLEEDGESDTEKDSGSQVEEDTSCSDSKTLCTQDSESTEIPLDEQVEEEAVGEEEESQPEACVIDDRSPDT
Experiment: PDE4 inhibition assay (IC50), Experimental Example 3
Type: biochemical
Conditions: at 10 μmol/L; read-out: inhibition rate (%) at prescribed concentration, PDE4
Procedure: PDE7 inhibitory assay was carried out by reacting the mixture of a compound, hPDE7B, and cAMP, and measuring the residual cAMP by a detection method using LANCE (registered trademark) Ultra cAMP Detection Kit (ParkinElmer). […] The prediction of PDE7 selectivity was evaluated by comparing each IC50 value of a compound against PDE4, 8, and 10 with the IC50 value of said compound against PDE7B. […]
Here the recorded inhibition at 10 µM is given for each entry.
// return numeric value only (unit: %, not printed)

These recorded examples may help you get a feel for the data.
INSERT INTO results (compound, u, data_value) VALUES
  ('Nc1nccn2c(C3CC4(CC4)C3)nnc12 [Example 20]', '%', 40),
  ('Nc1cncn2c(C3CCCCC3)nnc12 [Example 189]', '%', 22),
  ('CC1CCCCC1n1nnc2c(N)ncnc21 (single isomer, unassigned) [Example 192]', '%', 45);

Reported inhibition at 10 µM for hPDE4D (Homo sapiens, UniProt Q08499), given Cn1nc(C2CCCCC2)c2ncnc(N)c21 [Example 187] ?
38

Nc1ncnc2c(C3CCCCC3)noc12 [Example 188] , same question.
38

Nc1cccn2c(C3CCCCC3)nnc12 [Example 186] , same question.
-5

Nc1nccn2c(C3CCCOC3)nnc12 (centres unmarked) [Example 169] , same question.
33

Cc1cnc(N)c2nnc(C3CCCCC3)n12 [Example 171] , same question.
48
